Sourced from patent US20210087281A1

- target.system: native mouse MET on living cells (mouse, UniProt P16056 25-1379)
- method: cell-based or functional assay
Attribute: scatter score 0-4, MLP29, 1.000 nM
measurement.name: scatter score 0-4, MLP29, 1.000 nM (score)

INSERT INTO measurements (binder, observed_result) VALUES
  ('71D6 chimeric llama-human IgG1 mAb (antibody, V domains shown, llama VH on human IgG1 CH1-CH2-CH3, llama VL on human lambda CL) VH: ELQLVESGGGLVQPGGSLRLSCAASGFTFSSYGMSWVRQAPGKGLEWVSAINSYGGSTSYADSVKGRFTISRDNAKNTLYLQMNSLKPEDTAVYYCAKEVRADLSRYNDYESYDYWGQGTQVTVSS VL: QPVLNQPSALSVTLGQTAKITCQGGSLGARYAHWYQQKPGQAPVLVIYDDDSRPSGIPERFSGSSSGGTATLTISGAQAEDEGDYYCQSADSSGSVFGGGTHLTVL', 4),
  ('76G7 chimeric llama-human IgG1 mAb (antibody, V domains shown, llama VH on human IgG1 CH1-CH2-CH3, llama VL on human lambda CL) VH: QVQLVESGGNLVQPGGSLRLSCAASGFTFSNYYMSWVRQAPGKGLEWVSDIYSDGSTTWYSDSVKGRFTISRDNAKNTLSLQMNSLKSEDTAVYYCARVKIYPGGYDAWGQGTQVTVSS VL: QAGLTQPPSVSGSPGKTVTISCAGNSSDVGYGNYVSWYQQFPGMAPKLLIYLVNKRASGITDRFSGSKSGNTASLTISGLQSEDEADYYCASYTGSNNIVFGGGTHLTVL', 1),
  ('76H10 chimeric llama-human IgG1 mAb (antibody, V domains shown, llama VH on human IgG1 CH1-CH2-CH3, llama VL on human lambda CL) VH: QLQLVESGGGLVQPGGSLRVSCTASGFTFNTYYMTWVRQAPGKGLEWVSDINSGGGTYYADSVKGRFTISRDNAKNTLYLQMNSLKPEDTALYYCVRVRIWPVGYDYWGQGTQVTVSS VL: QAVVTQEPSLSVSPGGTVTLTCGLSSGSVTTSNYPGWFQQTPGQAPRTLIYNTNNRHSGVPSRFSGSISGNKAALTITGAQPEDEADYYCSLYTGSYTTVFGGGTHLTVL', 1);
